Assay: Solubility (24 hrs equilibration at RT, HPLC-UV)
Assay type: physicochemical
Details: biorelevant, thermodynamic from solid; Simulated Intestinal Fluid pH 7.5 (USP), target concentration 5 mg/ml, 24 hrs at RT; read-out: Solubility SIF
Mark not satisfied for solubility at 24 h values under 30 µg/mL, and satisfied for everything at or above.

IN: Has Cc1cc(C)cc(C(=O)N(NC(=O)c2ccc(B(O)O)c(NCC#N)c2)C(C)(C)C)c1 a recorded solubility at 24 h greater than or equal to 30 µg/mL?
OUT: satisfied

IN: Has Cc1cc(C)cc(C(=O)N(NC(=O)c2ccc(CN(C)C)c(B(O)O)c2)C(C)(C)C)c1 a recorded solubility at 24 h greater than or equal to 30 µg/mL?
OUT: satisfied

IN: Has COc1cccc(C(=O)NN(C(=O)c2ccc(B(O)O)c(NS(=O)(=O)c3ccccc3)c2)C(C)(C)C)c1C a recorded solubility at 24 h greater than or equal to 30 µg/mL?
OUT: not satisfied

IN: Has Cc1cc(C)cc(C(=O)N(NC(=O)c2ccc(CC#N)c(B(O)O)c2)C(C)(C)C)c1 a recorded solubility at 24 h greater than or equal to 30 µg/mL?
OUT: satisfied

IN: Has Cc1cc(C)cc(C(=O)NNC(=O)c2ccc3c(c2)N=C(C(F)(F)F)OB3O)c1 a recorded solubility at 24 h greater than or equal to 30 µg/mL?
OUT: not satisfied
